ASSAY_TARGET: UniProt:Q9NYK1
Sequence (Q9NYK1 27-1049): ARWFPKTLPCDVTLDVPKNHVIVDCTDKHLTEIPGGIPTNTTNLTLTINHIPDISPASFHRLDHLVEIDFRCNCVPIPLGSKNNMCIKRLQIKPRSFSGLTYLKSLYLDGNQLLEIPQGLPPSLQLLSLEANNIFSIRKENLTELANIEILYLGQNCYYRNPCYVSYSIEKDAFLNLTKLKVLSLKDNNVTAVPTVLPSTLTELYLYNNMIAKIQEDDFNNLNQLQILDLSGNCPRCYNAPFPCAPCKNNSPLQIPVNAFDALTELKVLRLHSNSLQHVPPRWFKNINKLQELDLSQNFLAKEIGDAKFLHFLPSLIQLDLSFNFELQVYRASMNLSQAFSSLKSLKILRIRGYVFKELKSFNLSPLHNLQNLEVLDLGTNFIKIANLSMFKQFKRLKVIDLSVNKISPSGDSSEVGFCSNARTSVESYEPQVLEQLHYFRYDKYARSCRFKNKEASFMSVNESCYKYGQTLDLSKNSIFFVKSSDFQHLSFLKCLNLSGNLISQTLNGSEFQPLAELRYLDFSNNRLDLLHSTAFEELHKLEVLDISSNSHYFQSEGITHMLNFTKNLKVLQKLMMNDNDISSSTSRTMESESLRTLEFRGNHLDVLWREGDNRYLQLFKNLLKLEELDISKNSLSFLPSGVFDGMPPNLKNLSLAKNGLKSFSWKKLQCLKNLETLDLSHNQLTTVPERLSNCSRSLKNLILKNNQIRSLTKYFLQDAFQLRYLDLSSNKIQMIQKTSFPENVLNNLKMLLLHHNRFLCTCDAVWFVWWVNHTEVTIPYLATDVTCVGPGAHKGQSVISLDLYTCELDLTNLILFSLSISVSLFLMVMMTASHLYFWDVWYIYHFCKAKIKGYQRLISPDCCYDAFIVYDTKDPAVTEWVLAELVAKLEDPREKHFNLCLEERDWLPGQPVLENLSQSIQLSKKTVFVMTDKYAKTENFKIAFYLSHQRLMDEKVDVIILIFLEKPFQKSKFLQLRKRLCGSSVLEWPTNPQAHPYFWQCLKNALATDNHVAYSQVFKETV
EXPERIMENTAL_DETAILS: TLR7 inhibition reporter assay (HEK-Blue cells, secreted embryonic alkaline phosphatase reporter)
REPORTED_CONDITIONS: HEK-Blue cells overexpressing human TLR7, stimulated with gardiquimod 7.5 μM; read-out: TLR 7 IC50
pIC50: −log10 of the molar value.
Answer f if pIC50 is under 5, and t if it is 5 or more.

MOLECULE: CC(C)CN1C2CCC1CC(N1CCC(c3cc4c(cc3F)nc(-c3ccc(S(C)(=O)=O)cc3)n4C)CC1)C2 (single isomer, unassigned) [Example 229]
CAT: f
//
MOLECULE: COc1ccc(-c2nc3ccc(C4CCN(C5CCN(C(C)C)CC5)CC4)cc3n2C)cc1OC
CAT: t
//
MOLECULE: COc1ccc(-c2nc3cc(C4CCN(C5CCN(C(C)C)CC5)CC4)ccc3n2C(C)C)cc1OC
CAT: t
//
MOLECULE: Cn1c(-c2ccc(S(C)(=O)=O)cc2)nc2cc(C3CCN(C4CC5CCC(C4)N5C4CCOCC4)CC3)cc(F)c21 (centres unmarked) [Example 211]
CAT: f
//
MOLECULE: Cn1c(-c2ccc(S(C)(=O)=O)cc2)nc2ccc(C3CCN(C4CCN(C5CCC5)CC4)CC3)c(F)c21
CAT: f
//
MOLECULE: Cc1cc(C2CCN(C3CCN(CC(C)C)CC3)CC2)cc2[nH]c(-c3ccnc4ccccc34)nc12
CAT: t
//
MOLECULE: Cc1cc(C2CCN(C3CC4CCC(C3)N4C3CCC3)CC2)cc2c1nc(-c1ccc(S(C)(=O)=O)cc1)n2C (single isomer, unassigned) [Example 152]
CAT: f
//
MOLECULE: CC(C)N1C2CCC1CC(N1CCC(c3cc4nc(-c5ccc(S(C)(=O)=O)cc5)n(C)c4cc3F)CC1)C2 (single isomer, unassigned) [Example 100]
CAT: f
//
MOLECULE: Cn1c(-c2ccc(S(C)(=O)=O)cc2)nc2cc(F)c(C3CCN(C4CCN(C5CCOCC5)CC4)CC3)cc21
CAT: f
//
MOLECULE: CC(C)N1CCC(N2CCC(c3cc(F)c4nc(-c5ccc(S(C)(=O)=O)cc5)n(C5CC5)c4c3)CC2)CC1
CAT: t
//
MOLECULE: CC(C)N1CCCC(N2CCC(c3cc(F)c4nc(-c5ccc(S(C)(=O)=O)cc5)n(C)c4c3)CC2)CC1 (single isomer, unassigned) [Example 295]
CAT: t
//
MOLECULE: Cc1cc(C2CCN(C3CC4CCC(C3)N4C3CCC3)CC2)cc2[nH]c(-c3ccc(S(C)(=O)=O)cc3)nc12 (centres unmarked)
CAT: f
//
MOLECULE: Cc1cc(-c2ccc(CN3C[C@@H]4CN(C(C)C)C[C@@H]4C3)cc2)cc2c1nc(-c1ccc(S(C)(=O)=O)cc1)n2C
CAT: t
//
MOLECULE: COc1ccc(-c2nc3c(C)cc(C4CCN(C5CCN(C(C)C)CC5)CC4)cc3[nH]2)cc1F
CAT: t

* * *

ASSAY_TARGET: human TLR9 (Homo sapiens)
Construct: host or cells: HEK-Blue cells (HEK293-derived reporter line)
Sequence (Q9NR96 26-1032): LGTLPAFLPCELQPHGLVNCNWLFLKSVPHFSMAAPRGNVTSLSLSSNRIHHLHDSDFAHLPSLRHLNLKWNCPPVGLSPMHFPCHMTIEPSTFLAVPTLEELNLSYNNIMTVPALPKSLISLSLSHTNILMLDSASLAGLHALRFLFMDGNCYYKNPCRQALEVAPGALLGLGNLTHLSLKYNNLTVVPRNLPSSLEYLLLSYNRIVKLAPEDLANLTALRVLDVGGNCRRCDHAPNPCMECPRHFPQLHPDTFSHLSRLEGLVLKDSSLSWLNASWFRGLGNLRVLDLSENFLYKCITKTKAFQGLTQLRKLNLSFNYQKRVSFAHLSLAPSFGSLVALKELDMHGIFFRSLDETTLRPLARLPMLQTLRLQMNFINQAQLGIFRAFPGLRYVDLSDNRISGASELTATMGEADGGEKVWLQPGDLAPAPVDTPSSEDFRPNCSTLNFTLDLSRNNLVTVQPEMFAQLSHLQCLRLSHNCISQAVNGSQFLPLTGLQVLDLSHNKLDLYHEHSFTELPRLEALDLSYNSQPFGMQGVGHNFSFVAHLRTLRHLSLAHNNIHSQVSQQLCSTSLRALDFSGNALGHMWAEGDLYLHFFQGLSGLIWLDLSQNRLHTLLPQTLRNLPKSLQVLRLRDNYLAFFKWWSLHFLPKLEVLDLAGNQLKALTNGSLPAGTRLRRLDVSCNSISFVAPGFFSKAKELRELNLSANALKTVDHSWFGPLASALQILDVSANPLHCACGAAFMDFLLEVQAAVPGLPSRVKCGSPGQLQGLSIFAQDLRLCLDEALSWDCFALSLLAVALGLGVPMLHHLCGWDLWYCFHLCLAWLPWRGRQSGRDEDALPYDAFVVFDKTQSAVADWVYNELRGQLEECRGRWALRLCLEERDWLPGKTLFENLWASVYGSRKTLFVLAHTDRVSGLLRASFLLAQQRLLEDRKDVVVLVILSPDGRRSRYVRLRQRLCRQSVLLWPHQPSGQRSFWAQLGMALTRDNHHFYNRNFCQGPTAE
EXPERIMENTAL_DETAILS: TLR9 inhibition reporter assay (HEK-Blue cells, secreted embryonic alkaline phosphatase reporter)
Type: cell-based
REPORTED_CONDITIONS: HEK-Blue cells overexpressing human TLR9, stimulated with ODN2006 5 nM, 22 hour incubation, reporter readout
pIC50: −log10 of the molar value.
Quick rule for you: pIC50 at 7 or higher means criterion met, lower means criterion not met.

COMPOUND: CC(C)N1CCC(N2CCC(c3ccc4c(nc(-c5ccc(S(C)(=O)=O)cc5)n4C)c3F)CC2)CC1
CAT: criterion not met

COMPOUND: Cn1c(-c2ccc(S(C)(=O)=O)cc2)nc2c(F)cc(C3CCN(C4CCCN(C5COC5)CC4)CC3)cc21 (single isomer, unassigned) [Example 108]
CAT: criterion not met

COMPOUND: Cc1noc(C)c1-c1nc2c(C)cc(C3CCN(C4CCN(CC(C)C)CC4)CC3)cc2[nH]1
CAT: criterion not met

COMPOUND: CN(C)C1CCN(Cc2ccc(-c3ccc4nc(-c5cccc(S(C)(=O)=O)c5)n(C)c4c3)cc2)CC1
CAT: criterion met

COMPOUND: COc1ccc(-c2nc3c(C)cc(C4CCN(C5CCN(CC(C)C)CC5)CC4)cc3n2C)cc1OC [Example 15, tris(2,2,2-trifluoroacetate)]
CAT: criterion met

COMPOUND: COc1ccc(-c2nc3ccc(C4CCN(C5CCN(C6CC6)CC5)CC4)cc3n2CC(F)F)cc1OC
CAT: criterion not met

Data provenance is patent US12492188B2.
